Items are presented alongside their recorded inhibition at 10 µM.
ASSAYED_SYSTEM: NaV1.7 (Homo sapiens)
Construct: expressed in transfected cells; tetracycline-inducible, kept under hygromycin and blasticidin
Sequence (Q15858 whole entry): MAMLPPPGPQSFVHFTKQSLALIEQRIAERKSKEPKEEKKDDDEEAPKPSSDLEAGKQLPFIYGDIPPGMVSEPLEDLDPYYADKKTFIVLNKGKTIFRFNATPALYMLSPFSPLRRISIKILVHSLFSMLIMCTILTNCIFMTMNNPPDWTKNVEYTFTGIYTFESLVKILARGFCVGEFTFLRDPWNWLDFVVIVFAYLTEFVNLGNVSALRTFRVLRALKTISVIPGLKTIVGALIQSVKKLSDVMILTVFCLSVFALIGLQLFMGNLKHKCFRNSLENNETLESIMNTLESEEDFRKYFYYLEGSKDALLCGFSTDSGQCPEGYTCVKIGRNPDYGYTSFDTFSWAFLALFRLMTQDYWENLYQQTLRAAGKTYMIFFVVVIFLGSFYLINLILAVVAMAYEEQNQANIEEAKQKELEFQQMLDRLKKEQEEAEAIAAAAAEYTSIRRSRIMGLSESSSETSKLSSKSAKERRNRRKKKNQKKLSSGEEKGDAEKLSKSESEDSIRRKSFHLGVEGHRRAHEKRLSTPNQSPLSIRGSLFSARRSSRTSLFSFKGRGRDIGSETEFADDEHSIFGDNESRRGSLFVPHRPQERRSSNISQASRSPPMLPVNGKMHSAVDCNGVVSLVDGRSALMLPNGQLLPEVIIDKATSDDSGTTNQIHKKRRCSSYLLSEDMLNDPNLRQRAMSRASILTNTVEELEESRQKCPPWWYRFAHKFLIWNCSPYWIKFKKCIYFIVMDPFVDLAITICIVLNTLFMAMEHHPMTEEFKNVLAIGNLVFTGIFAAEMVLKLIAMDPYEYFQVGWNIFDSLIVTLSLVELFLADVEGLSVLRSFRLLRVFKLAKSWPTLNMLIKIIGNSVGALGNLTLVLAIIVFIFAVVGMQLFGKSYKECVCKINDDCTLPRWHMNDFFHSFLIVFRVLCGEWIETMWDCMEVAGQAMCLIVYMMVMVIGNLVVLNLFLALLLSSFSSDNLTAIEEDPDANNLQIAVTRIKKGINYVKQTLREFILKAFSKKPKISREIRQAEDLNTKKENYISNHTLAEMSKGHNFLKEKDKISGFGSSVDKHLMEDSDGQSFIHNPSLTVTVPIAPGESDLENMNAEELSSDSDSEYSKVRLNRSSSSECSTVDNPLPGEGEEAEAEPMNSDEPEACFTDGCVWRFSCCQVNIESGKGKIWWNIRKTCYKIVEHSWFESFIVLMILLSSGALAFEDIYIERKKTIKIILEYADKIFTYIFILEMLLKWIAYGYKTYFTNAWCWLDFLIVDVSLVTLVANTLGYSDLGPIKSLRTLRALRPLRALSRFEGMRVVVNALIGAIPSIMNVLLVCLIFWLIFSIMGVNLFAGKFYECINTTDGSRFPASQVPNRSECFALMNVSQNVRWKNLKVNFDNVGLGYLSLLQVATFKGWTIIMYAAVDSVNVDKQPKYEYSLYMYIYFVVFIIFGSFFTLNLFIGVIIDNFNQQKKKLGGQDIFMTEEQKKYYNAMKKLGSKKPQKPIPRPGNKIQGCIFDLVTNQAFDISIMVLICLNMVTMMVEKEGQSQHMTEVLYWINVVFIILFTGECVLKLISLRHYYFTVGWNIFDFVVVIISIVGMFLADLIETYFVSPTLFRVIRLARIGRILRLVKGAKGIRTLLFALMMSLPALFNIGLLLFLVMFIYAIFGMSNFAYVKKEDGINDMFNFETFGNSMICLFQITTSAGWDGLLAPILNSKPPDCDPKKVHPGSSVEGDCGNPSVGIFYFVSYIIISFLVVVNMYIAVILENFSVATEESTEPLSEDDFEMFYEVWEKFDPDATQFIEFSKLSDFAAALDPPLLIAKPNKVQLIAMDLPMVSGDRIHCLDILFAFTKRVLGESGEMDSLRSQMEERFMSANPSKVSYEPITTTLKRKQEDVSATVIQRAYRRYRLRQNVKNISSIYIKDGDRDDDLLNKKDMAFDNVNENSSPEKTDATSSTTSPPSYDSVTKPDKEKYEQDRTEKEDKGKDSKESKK
ASSAY_COMMENT: Whole cell patch clamp, internal block of NaV1.7 current (compound in internal solution)
Assay type: cell-based
REPORTED_CONDITIONS: % inhibition at 10 μM, compound applied internally, manual patch clamp; read-out: Nav1.7 Intracellular Inhibition
MEASUREMENT_LABEL: inhibition at 10 µM

{"columns": ["SAMPLE_SMILES", "EXPERIMENTAL_RESULT"],
 "data": [
  ["Cc1cccc(C)c1NC(=O)C[n+]1cccc(C#N)c1", "70 to 95%"],
  ["COc1cc(C#N)c[n+](CC(=O)Nc2c(C)cccc2C)c1", "70 to 95%"],
  ["Cc1cccc(C)c1NC(=O)C[n+]1cccc(-c2nn[nH]n2)c1", "< 40%"],
  ["Cc1cccc(C)c1NC(=O)C[n+]1c(C)cc(C)n1C", "70 to 95%"]
]}
